target or test system: Drosophila OR49b (Drosophila melanogaster, UniProt Q9V6H2)
Construct: expressed in transfected cells
Sequence (Q9V6H2 1-375): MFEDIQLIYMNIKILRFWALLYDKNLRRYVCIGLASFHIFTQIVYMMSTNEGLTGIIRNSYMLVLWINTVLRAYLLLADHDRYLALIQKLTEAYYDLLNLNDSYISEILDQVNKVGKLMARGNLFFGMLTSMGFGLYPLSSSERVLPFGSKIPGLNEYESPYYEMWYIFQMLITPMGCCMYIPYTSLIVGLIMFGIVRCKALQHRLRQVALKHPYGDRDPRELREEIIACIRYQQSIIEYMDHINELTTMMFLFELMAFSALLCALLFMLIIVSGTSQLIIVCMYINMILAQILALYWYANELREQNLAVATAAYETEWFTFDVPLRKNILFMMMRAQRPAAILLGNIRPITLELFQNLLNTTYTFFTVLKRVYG
Sequence (Q9VNB5 1-486 partner): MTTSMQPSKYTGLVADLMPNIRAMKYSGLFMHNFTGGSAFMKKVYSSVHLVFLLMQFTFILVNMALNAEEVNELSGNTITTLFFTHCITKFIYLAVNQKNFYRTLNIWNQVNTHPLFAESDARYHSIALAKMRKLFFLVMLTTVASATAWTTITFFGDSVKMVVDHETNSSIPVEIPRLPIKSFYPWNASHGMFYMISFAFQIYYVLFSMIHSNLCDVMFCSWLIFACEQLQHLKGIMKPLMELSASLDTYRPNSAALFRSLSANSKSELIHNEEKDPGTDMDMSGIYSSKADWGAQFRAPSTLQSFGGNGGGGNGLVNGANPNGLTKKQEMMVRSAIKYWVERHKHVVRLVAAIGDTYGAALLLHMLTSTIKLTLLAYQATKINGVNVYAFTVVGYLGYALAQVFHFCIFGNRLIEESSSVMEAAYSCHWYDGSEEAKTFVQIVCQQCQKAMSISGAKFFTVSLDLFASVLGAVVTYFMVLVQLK
assay remarks: cell-based
stated conditions: OR49b cell line, VOC concentration 100 μM
quantity kind: OR49b response (VUAA1-normalized) at 100 μM

{"compound": "CCCCCCCCCCC [undecane]", "target or test system": "Drosophila OR49b (Drosophila melanogaster, UniProt Q9V6H2)", "test value": 0.00}
{"compound": "Cc1ccc(C)cc1 [p-xylene]", "target or test system": "Drosophila OR49b (Drosophila melanogaster, UniProt Q9V6H2)", "test value": 0.38}
{"compound": "CCCCCCCCCCCCCC [tetradecane]", "target or test system": "Drosophila OR49b (Drosophila melanogaster, UniProt Q9V6H2)", "test value": 0.00}
{"compound": "OCCc1ccccc1 [phenethyl alcohol]", "target or test system": "Drosophila OR49b (Drosophila melanogaster, UniProt Q9V6H2)", "test value": 0.09}

From: paper PMC10709440
